experimental.target: Platelet-activating factor receptor (Oryctolagus cuniculus)
protocol: Antagonist activity against platelet activating factor (PAF) receptor in rabbit platelet membranes using [3H]C18-PAF as radioligand
observable: Ki (nM)

CC(C)(C)OC(=O)n1cc(C(=O)[C@@H]2CSC(c3cccnc3)N2)c2ccc(OCc3ccccc3)cc21 (some centres undefined)
1
Cc1cccc2c(C(=O)[C@@H]3CSC(c4cccnc4)N3)c[nH]c12 (some centres undefined)
6.5
CCS(=O)(=O)n1cc(C(=O)[C@@H]2CSC(c3cccnc3)N2)c2ccccc21 (some centres undefined)
18
O=C(O)Cn1cc(C(=O)[C@@H]2CSC(c3cccnc3)N2)c2ccccc21 (some centres undefined)
30
O=C(c1c[nH]c2cc(Oc3ccc(F)cc3)ccc12)[C@@H]1CSC(c2cccnc2)N1 (some centres undefined)
1.9
O=C(c1c[nH]c2cc(-c3ccccc3)ccc12)[C@@H]1CSC(c2cccnc2)N1 (some centres undefined)
14
O=C(c1ccccc1)c1cccc(NC(=O)[C@@H]2CSC(c3cccnc3)N2)c1 (some centres undefined)
7.7

[1] CN(C)C(=O)n1cc(C(=O)[C@@H]2CSC(c3cccnc3)N2)c2ccc(Oc3ccc(F)cc3)cc21 (some centres undefined)
[2] Cc1c(C(=O)[C@@H]2CSC(c3cccnc3)N2)c2ccccc2n1C(=O)OC(C)(C)C (some centres undefined)
Qu. Please tell me which of the two, 1 or 2 , has the higher reported Ki value. Answer by quoting the chosen item's label.
Ans. 2
(2: 9.5 nM, 1: 2.2 nM)

// provenance: BindingDB's records for doi:10.1021/jm00039a015
